Assay System: von Willebrand factor full length (Homo sapiens, UniProt P04275 SEQ:764-2813)
Experimental Details: filter; 25% bound at 100 nM vWF
Test Settings: tags: Calbiochem 681300; label: 5'-32P
Method: For KD determination, chemically synthesized aptamers were purified using denaturing polyacrylamide gel electrophoresis, 5′end labeled with γ-³²P ATP and were tested for direct binding to full length human vWF (Calbiochem Cat.# 681300, La Jolla, Calif.). […] KD values were calculated by fitting the equation y=(max/(1+K/protein))+yint using KaleidaGraph (KaleidaGraph v. 3.51, Synergy Software).

| Binder | Kd, nM |
| --- | --- |
| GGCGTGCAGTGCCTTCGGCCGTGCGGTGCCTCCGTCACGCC (ssDNA, 2'-OMe C33, 3'-idT) [ARC1226] | 12 |
| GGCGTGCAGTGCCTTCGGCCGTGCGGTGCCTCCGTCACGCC (ssDNA, 2'-OMe C7, 3'-idT) [ARC1200] | 5 |
